Source of measurements: patent US20210388087A1

Target: T1, CD3 epsilon homodimer protein (UniProt P07766 23-126)
T1 construct: also called CD3 (CD3 epsilon)
T1 sequence (P07766 23-126): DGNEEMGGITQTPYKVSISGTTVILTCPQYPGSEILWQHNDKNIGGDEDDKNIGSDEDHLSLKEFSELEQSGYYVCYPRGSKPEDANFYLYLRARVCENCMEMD
Test: SPR Biacore T200, CD3e homodimer on chip, vs unaltered GLS3000 antibody
Here, each record is paired with measured ratio of amounts bound (Z=Y/X) data.
Give only the figure.

{"Binder": "GLS3000 Q27P (antibody, name in Kabat numbering, V domains shown, one-arm IgG as m2) VH: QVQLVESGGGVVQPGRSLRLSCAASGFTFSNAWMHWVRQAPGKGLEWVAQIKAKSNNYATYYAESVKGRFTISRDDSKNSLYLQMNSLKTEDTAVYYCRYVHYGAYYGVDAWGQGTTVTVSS VL: DIVMTQSPLSLPVTPGEPASISCRSSPSLVHSNRNTYLHWYQQKPGQAPRLLIYKVSNRFSGVPDRFSGSGSGTDFTLKISRVEAEDVGVYYCGQGTQVPYTFGQGTKLEIK", "ratio of amounts bound (Z=Y/X)": 0.29}
{"Binder": "GLS3000 V94Y (antibody, name in Kabat numbering, V domains shown, one-arm IgG as m2) VH: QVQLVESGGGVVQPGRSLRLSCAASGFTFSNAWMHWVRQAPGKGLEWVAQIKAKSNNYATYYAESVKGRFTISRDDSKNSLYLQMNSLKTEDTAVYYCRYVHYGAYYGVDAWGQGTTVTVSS VL: DIVMTQSPLSLPVTPGEPASISCRSSQSLVHSNRNTYLHWYQQKPGQAPRLLIYKVSNRFSGVPDRFSGSGSGTDFTLKISRVEAEDVGVYYCGQGTQYPYTFGQGTKLEIK", "ratio of amounts bound (Z=Y/X)": 0.63}
{"Binder": "GLS3000 P95A (antibody, name in Kabat numbering, V domains shown, one-arm IgG as m2) VH: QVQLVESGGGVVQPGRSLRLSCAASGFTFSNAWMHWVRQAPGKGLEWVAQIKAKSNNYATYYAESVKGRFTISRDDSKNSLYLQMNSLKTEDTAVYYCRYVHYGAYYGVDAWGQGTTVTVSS VL: DIVMTQSPLSLPVTPGEPASISCRSSQSLVHSNRNTYLHWYQQKPGQAPRLLIYKVSNRFSGVPDRFSGSGSGTDFTLKISRVEAEDVGVYYCGQGTQVAYTFGQGTKLEIK", "ratio of amounts bound (Z=Y/X)": 0.63}

Return ratio of amounts bound (Z=Y/X) for the following binder: GLS3000 S25P (antibody, name in Kabat numbering, V domains shown, one-arm IgG as m2) VH: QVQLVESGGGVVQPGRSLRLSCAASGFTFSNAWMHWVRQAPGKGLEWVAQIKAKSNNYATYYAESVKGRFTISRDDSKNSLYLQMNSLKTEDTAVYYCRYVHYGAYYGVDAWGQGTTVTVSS VL: DIVMTQSPLSLPVTPGEPASISCRPSQSLVHSNRNTYLHWYQQKPGQAPRLLIYKVSNRFSGVPDRFSGSGSGTDFTLKISRVEAEDVGVYYCGQGTQVPYTFGQGTKLEIK 1.01

Return ratio of amounts bound (Z=Y/X) for the following binder: GLS3000 N53A (antibody, name in Kabat numbering, V domains shown, one-arm IgG as m2) VH: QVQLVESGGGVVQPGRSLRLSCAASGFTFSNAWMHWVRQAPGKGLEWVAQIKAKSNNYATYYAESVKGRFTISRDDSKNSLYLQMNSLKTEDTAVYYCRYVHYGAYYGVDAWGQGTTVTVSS VL: DIVMTQSPLSLPVTPGEPASISCRSSQSLVHSNRNTYLHWYQQKPGQAPRLLIYKVSARFSGVPDRFSGSGSGTDFTLKISRVEAEDVGVYYCGQGTQVPYTFGQGTKLEIK 0.61
